Examples of compounds with documented %Inh follow.
System: JAK1(JH2domain-pseudokinase)
Test parameters: concentration: 1 μM, replicates: in singlicate; n = 1;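 also: KINOMEscan kinase panel screen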
Numeric only. Scale: %

// worked examples, %Inh included
compound="Cc1cccc(Cn2ccn3c(=O)cc(N4CCOCC4)nc23)c1 [GSK2297542]" property_label=%Inh reading=0
compound="CC(C)Oc1ccc2c(-c3ccnc(Nc4ccc(N5CCN(C)CC5)cc4)n3)cnn2n1 [GW696155]" property_label=%Inh reading=93.5
compound="Cc1cn2c(=O)cc(N3CCOCC3)nc2n1Cc1cccc(Cl)c1Cl [GSK2334006]" property_label=%Inh reading=0
compound="c1ccc(-c2n[nH]cc2-c2ccnc3ccccc23)nc1 [GW271431]" property_label=%Inh reading=0
compound="NS(=O)(=O)c1cccc(-c2ccc3ncc(N4CCOCC4)nc3c2)c1 [GSK1535721]" property_label=%Inh reading=5

Request: Given NS(=O)(=O)c1cccc(-c2ccc3nccc(-c4cccc(S(N)(=O)=O)c4)c3c2)c1 [GW867253] , respond with its %Inh.
Result: 38

Request: Given COc1cc2c(cc1OCCN1CCN(C)CC1)ncc1c3ccc(C#N)cc3[nH]c21 , respond with its %Inh.
Result: 60

Request: Given COCCNC(=O)c1ccc(-c2cc(C(=O)NC3CC3)cc(F)c2C)cc1 [GW868318] , respond with its %Inh.
Result: 16

Request: Given CSc1ccc(-c2cc3ncnc(SCC(=O)O)c3s2)cc1 , respond with its %Inh.
Result: 0

====

System: RIPK2
Test parameters: concentration: 1 μM, replicates: in singlicate; n = 1
Examples of molecules with documented %Inh follow.
Numeric only. Scale: %

compound=CC(=O)Nc1ccc(COc2ccc(Nc3ccnc4cc(-c5ccccn5)ccc34)cc2)cc1.Cl study_system=RIPK2 reading=93.2
compound=CCn1cnc2c(N)ncnc21 study_system=RIPK2 reading=1
compound=COc1ccc(Nc2ncc(C#N)c(Nc3ccccc3C(N)=O)n2)cc1N1CCN(C)CC1.Cl study_system=RIPK2 reading=76
compound=N#Cc1c(N2CCOCC2)sc(-c2ccn[nH]2)c1-c1ccc(Cl)cc1 study_system=RIPK2 reading=0

Continue with the next molecule.
Request: Given CN(C(=O)c1ccc(-c2cc(-c3c[nH]nc3-c3ccccn3)ccn2)cc1)C1CCOCC1 , respond with its %Inh.
Result: 0

====

System: p38-gamma
Construct: gene MAPK12
Test parameters: concentration: 1 μM, replicates: in singlicate; n = 1
Property label: %Inh

Request: Enter recorded %Inh with p38-gamma for O=C(NCCNc1ccnc(Nc2ccc(F)cc2)n1)c1cc2ccccc2s1 here.
Result: 0%

Request: Enter recorded %Inh with p38-gamma for O=C1Cc2cc(Nc3nc(NCc4cccc(S(=O)(=O)C(F)(F)F)c4)ncc3C(F)(F)F)ccc2N1 here.
Result: 0%

Request: Enter recorded %Inh with p38-gamma for Cn1cc(-c2ccc3c(c2)CCN3C(=O)Cc2ccccc2Cl)c2c(N)ncnc21 here.
Result: 20%

Request: Enter recorded %Inh with p38-gamma for COc1ccc(Nc2ncc(C#N)c(Nc3ccccc3C(N)=O)n2)cc1N1CCN(C)CC1.Cl here.
Result: 32%

Request: Enter recorded %Inh with p38-gamma for O=C(NCCCN1CCOCC1)c1cccc(Nc2nccc(Nc3ccc(Oc4ccccc4)cc3)n2)c1 here.
Result: 0%

Request: Enter recorded %Inh with p38-gamma for CN(C(=O)c1ccc(-c2cc(-c3c[nH]nc3-c3ccccn3)ccn2)cc1)C1CCOCC1 here.
Result: 0%

Request: Enter recorded %Inh with p38-gamma for Cn1ccc2ncnc(Oc3ccc(NC(=O)Nc4ccncc4)c(Cl)c3)c21 here.
Result: 8%

Request: Enter recorded %Inh with p38-gamma for NCC(NC(=O)c1cc(-c2cn[nH]c2)c(-c2ccnc3[nH]ccc23)s1)c1ccccc1.O=C(O)C(F)(F)F.O=C(O)C(F)(F)F (stereo not shown) here.
Result: 27%

Request: Enter recorded %Inh with p38-gamma for C[C@@H](Oc1cc(-n2cnc3ccc(NC(=O)NC(C)(C)C)cc32)sc1C(N)=O)c1ccccc1Cl here.
Result: 2%

Request: Enter recorded %Inh with p38-gamma for COc1ccc(Nc2nccc(N3CCC(NC(=O)Nc4cc(C)ccc4C)C3)n2)cc1 (stereo not shown) here.
Result: 0%

These entries and their values trace back to paper PMC5540273.
